experimental_protocol: Antiproliferative activity against human MES-SA/Dx5 cells after 96 hrs by SRB assay
Type: functional, cell-based
cond: MES-SA/Dx5, 96 h
For each of the compounds below, state its pIC50.
Note: pIC50 values are expressed as the negative base-10 logarithm of concentration in M.

## Input Quick one: pIC50 for COc1cccc2c1C(=O)c1c(O)c3c(c(O)c1C2=O)C[C@@](O)(C(=O)CO)C[C@@H]3O[C@H]1C[C@H](N)[C@H](O)[C@H](C)O1 ?
## Output 5.51

## Input Quick one: pIC50 for CN(CCN/N=N/c1ccc2ncnc(Nc3cccc(Cl)c3)c2c1)CCNS(=O)(=O)c1cccc2c(N(C)C)cccc12 ?
## Output 5.03

## Input Quick one: pIC50 for CN(C)c1cccc2c(S(=O)(=O)NCCN=NNc3ccc4ncnc(Nc5cccc(Cl)c5)c4c3)cccc12 ?
## Output 4.78

Hello, the source for this data is ChEMBL document CHEMBL1157582, in case you need it.
